Catalogue of furin cleavage Z-score readings, one per entry.
# target-or-system: furin, P09958;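 also: purified furin at 1:10 enzyme:substrate in 50 mM HEPES pH 7.5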
# Sequence (P09958 whole entry): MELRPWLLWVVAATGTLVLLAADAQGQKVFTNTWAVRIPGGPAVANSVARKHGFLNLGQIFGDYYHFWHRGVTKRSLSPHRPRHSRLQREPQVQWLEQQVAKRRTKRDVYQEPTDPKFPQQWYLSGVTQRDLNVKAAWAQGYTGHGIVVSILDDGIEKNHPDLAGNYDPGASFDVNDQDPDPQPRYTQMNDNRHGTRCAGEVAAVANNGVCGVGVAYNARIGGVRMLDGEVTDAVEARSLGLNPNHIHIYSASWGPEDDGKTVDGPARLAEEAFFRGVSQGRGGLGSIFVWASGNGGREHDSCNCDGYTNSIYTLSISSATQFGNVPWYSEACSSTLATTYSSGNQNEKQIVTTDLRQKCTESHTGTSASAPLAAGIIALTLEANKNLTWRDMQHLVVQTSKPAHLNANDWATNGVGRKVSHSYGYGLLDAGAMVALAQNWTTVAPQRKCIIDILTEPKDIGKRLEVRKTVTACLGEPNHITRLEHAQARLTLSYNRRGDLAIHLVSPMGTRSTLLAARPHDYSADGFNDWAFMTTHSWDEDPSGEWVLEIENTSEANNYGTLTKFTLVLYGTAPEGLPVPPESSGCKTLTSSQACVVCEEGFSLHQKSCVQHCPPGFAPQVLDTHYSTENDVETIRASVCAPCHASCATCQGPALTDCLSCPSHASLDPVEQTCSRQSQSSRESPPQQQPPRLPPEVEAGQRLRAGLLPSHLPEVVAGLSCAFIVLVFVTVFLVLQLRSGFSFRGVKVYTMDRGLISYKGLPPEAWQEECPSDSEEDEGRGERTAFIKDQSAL
# measurement-protocol: furin cleavage Z-score vs untreated control; higher = more cleavage, active = 3.5 or more, inactive = 1 or less, 8 variable residues between constant flanks
# condition-label: 30 min
Some of the results follow. How many sequences the whole screen found active is unknown.
Lab note: write the figure by itself, no unit.

1) CAREKRDSVCAGNASASA [FS-1851] :: 2.31
2) CAREKKDVLAAGNASASA [FS-2484] :: 1.5
3) CARRDRSTSIAGNASASA [FS-3203] :: 1.79
4) CASTPCSAHFAGNASASA [HC2567] :: 1.8
5) CAPSPRQARRAGNASASA [FS-1246] :: 2.92

Form field furin cleavage Z-score, entry CARSFRTASVAGNASASA [FS-3078] : 1.09
